# protocolSummary: solvent given as SMILES
# conditionLabel: in ClCCl
Provide the reported emission maximum of each item.
Give bare numbers, in nm.

Quick request: emission maximum for each listed item, please.
1. CCCCCCn1c2ccccc2c2cc(-c3ccc(-c4cc(-c5ccccn5)nc(-c5ccccn5)c4)cc3)ccc21
2. CCCCCCOc1cc(C=O)c(OCCCCCC)cc1C=O
3. COc1ccc(C#Cc2ccc(C#N)cc2)cc1OC
4. CC(=O)c1c(N[C@@H](CC(C)C)C(=O)O)c2ccc(N(C)C)cc2oc1=O
5. O=Cc1ccc(-c2cccc(-c3nc4ccccc4s3)c2O)o1
6. Cc1cc(C)c(-c2c3ccccc3c3ccc4cc5c(-c6c(C)cc(C)cc6C)c6ccccc6c6ccc7cc2c3c4c7c56)c(C)c1
7. c1ccc2c(c1)c1ccccc1c1[nH]c(-c3ccc(-c4nc5c6ccccc6c6ccccc6c5[nH]4)cc3)nc21

Ans:
1. 447
2. 467
3. 417
4. 446
5. 565
6. 617
7. 465

Quick request: emission maximum for each listed item, please.
1. CN(C)c1ccc(-c2ccc(/C=C/c3ccncn3)cc2)cc1
2. CC(C)[Si]1(C(C)C)c2cc(C#N)ccc2-c2ccc(N(C)C)cc21
3. c1ccc(-c2c3ccccc3c(-c3ccc4ccccc4c3)c3ccccc23)nc1
4. COc1ccc2c(c1)CCc1c(-c3ccccc3)c3n(c1-2)[B-](F)(F)[N+]1=C2C=NC=CN2[B-](F)(F)[N+]1=C3
5. CC1(C)c2ccccc2N(c2ccc3c(ccc4nc5ccc6cc(N7c8ccccc8C(C)(C)c8ccccc87)ccc6c5nc43)c2)c2ccccc21
6. Cc1cc(C)c(C2=C3C=C(c4ccc(C(C)(C)C)cc4)C(c4ccc(C(C)(C)C)cc4)=[N+]3[B-](F)(F)n3c2cc(-c2ccc(C(C)(C)C)cc2)c3-c2ccc(C(C)(C)C)cc2)c(C)c1
7. COc1ccc(/C=C/C2=[O+][B-](F)(F)OC(/C=C/c3ccc(OC)c4ccccc34)=C2c2ccccc2)c2ccccc12
8. COc1cc(/C=C/c2ccncc2)c(OC)cc1C=O

Ans:
[570, 442, 431, 576, 699, 644, 633, 460]

Quick request: emission maximum for each listed item, please.
1. N#CC(C#N)=C(/C=C/c1cn(-c2ccccc2)nc1-c1ccccc1)c1ccccc1
2. CCC1=C(C)C2=Cc3c4ccccc4c4n3[B-](c3ccc(OC)cc3)(Oc3ccccc3-4)[N+]2=C1C (stereo not drawn)
3. CCOC(=O)c1c(-c2cc3ccc(OCC=C(C)C)cc3oc2=O)nn(-c2cccc(C)c2)c1C(=O)OCC
4. CCOC(=O)COc1ccc(/C=C/C2=C3C(C)=CC(C)=[N+]3[B-](F)(F)n3c2c2ccccc2c3-c2[nH]c(C)cc2C)cc1

Ans:
[489, 639, 425, 687]

Quick request: emission maximum for each listed item, please.
1. CC(C)(C)c1ccc2c(c1)sc1[n+]2[B-](F)(F)n2c(c3cccc4c(Br)ccc2c43)=C1C#N
2. C(#Cc1ccccc1)c1ccccc1
3. F[B-]1(F)N2C=CN=CC2=[N+]2[N+]1=Cc1c(-c3ccccc3)cc(-c3ccccc3)n1[B-]2(F)F
4. CCCCCCOc1ccc(N(c2ccc(OCCCCCC)cc2)c2ccc(-c3sc(-c4ccc(N(c5ccc(OCCCCCC)cc5)c5ccc(OCCCCCC)cc5)cc4)c4nc(-c5ccccc5)c(-c5ccccc5)nc34)cc2)cc1
5. COC1=[N+]2C(=C(c3ccccc3)c3cc(SC#N)c(OC)n3[B-]2(F)F)C=C1SC#N
6. COc1ccc([C@@H]2C[C@](O)(c3ccccn3)C[C@](O)(c3ccccn3)[C@H]2C(=O)c2ccc(N(c3ccccc3)c3ccccc3)cc2)cc1
7. CCCCOc1c(-c2ccc(C=O)cc2)cc2cc(-c3ccc(C=O)cc3)c(OCCCC)c3c4c(OCCCC)c(-c5ccc(C=O)cc5)cc5cc(-c6ccc(C=O)cc6)c(OCCCC)c(c1c23)c54

Ans:
560
302
560
793
555
513
500

Quick request: emission maximum for each listed item, please.
1. CCN(CC)c1ccc2cc(C#N)c(=O)oc2c1
2. COc1ccc(/C=C/C2=C3CCc4ccccc4C3=[O+][B-](F)(F)O2)cc1

Ans:
1. 460
2. 515

Quick request: emission maximum for each listed item, please.
1. O=C1c2cccc3c(-n4c5ccccc5c5ccccc54)ccc(c23)C(=O)N1c1ccccc1
2. CCCCCCc1ccc(-n2c3[n+](c4c5ccccc5c5ccccc5c42)[B-](C)(C)c2cc(-n4c5ccccc5c5ccccc54)ccc2-3)cc1
3. O=[N+]([O-])c1ccc(/C2=C3N=C(C(c4ccccc4)=C/3c3ccccc3)/C(c3ccc([N+](=O)[O-])cc3)=c3\[nH]/c(c(-c4ccccc4)c3-c3ccccc3)=C(/c3ccc([N+](=O)[O-])cc3)C3=N/C(=C(/c4ccc([N+](=O)[O-])cc4)c4[nH]c2c(-c2ccccc2)c4-c2ccccc2)C(c2ccccc2)=C3c2ccccc2)cc1

Ans:
568
408
745

Quick request: emission maximum for each listed item, please.
1. CCn1c2ccc(-c3cccs3)cc2c2cc(-c3cccs3)ccc21
2. CC(C)(C)NC(=O)c1cccc2ccc3c4cc(F)ccc4c4ccc(F)cc4c3c12

Ans:
392
385
